Each record here notes measured Beta 2 Log KD.
biological target: human beta2-adrenoceptor (Homo sapiens, UniProt P07550); construct: expressed in transfected cells; host or cells: CHO cells; assay: 3H-CGP12177 whole-cell binding, CHO cells expressing human beta2-adrenoceptor; details: 3H-CGP 12177 whole cell binding, mean ± s.e.mean
Sequence (P07550 whole entry): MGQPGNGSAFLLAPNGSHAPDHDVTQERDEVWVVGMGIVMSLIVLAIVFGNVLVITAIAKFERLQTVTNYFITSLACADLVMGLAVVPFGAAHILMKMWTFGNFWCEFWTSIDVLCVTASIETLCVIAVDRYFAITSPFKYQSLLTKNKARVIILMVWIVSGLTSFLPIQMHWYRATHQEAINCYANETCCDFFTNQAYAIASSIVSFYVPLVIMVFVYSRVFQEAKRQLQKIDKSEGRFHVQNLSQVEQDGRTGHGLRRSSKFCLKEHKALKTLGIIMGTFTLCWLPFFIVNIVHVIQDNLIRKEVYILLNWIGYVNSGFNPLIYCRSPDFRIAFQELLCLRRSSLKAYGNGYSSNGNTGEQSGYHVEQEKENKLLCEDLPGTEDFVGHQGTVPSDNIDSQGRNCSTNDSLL

Solved entries (count: 3):
O=C(NCCNCC(O)COc1ccc(OCCOC2CCCC2)cc1)Nc1ccccc1C(F)(F)F (stereo not shown) [47q]    −5.84 ± 0.02
O=C(NCCNCC(O)COc1ccc(OCCOC2CCCC2)cc1)Nc1ccc(Br)cc1 (stereo not shown) [47p]    −5.86 ± 0.04
COc1ccccc1NC(=O)NCCNCC(O)COc1ccc(OCCOC2CCCC2)cc1 (stereo not shown) [47e]    −5.93 ± 0.02

Now look at this one.
Exercise: Quick check: Beta 2 Log KD on human beta2-adrenoceptor (Homo sapiens, UniProt P07550), item O=C(NCCNCC(O)COc1ccc(OCCOC2CCCC2)cc1)Nc1cccc(O)c1 (stereo not shown) [47u] ?
Solution: −5.85 ± 0.06
